molecular target: UniProtKB Q13191; assay: Cbl-b LCK Ub TR-FRET assay (Cbl-b Lck HTRF); type: biochemical; details: ratio C-cbl Lck HTRF IC50 / Cbl-b Lck HTRF IC50
assay metric: (fold-selectivity) Cbl-b and C-Cbl Selectivity (x)

P. Cn1cnnc1[C@]1(c2cccc(N3Cc4c(cc(CNC5(C)CCC5)cc4C(F)(F)F)C3=O)c2)C[C@@](O)(C(F)F)C1
Q. CO[C@H]1C[C@](c2cccc(N3Cc4c(cc(CN5CCC5)cc4C(F)(F)F)C3=O)c2)(c2nncn2C)C1
Consider entries P and Q . Which has the numerically lower (fold-selectivity) Cbl-b and C-Cbl Selectivity? Use the label to indicate which entry you chose.
P

###

target: Cbl-b (Homo sapiens (Human), UniProt Q13191); experiment: Cbl-b LCK Ub TR-FRET assay (Cbl-b Lck HTRF); format: biochemical; conditions: Cbl-b LCK Ub TR-FRET
Sequence (Q13191 40-426): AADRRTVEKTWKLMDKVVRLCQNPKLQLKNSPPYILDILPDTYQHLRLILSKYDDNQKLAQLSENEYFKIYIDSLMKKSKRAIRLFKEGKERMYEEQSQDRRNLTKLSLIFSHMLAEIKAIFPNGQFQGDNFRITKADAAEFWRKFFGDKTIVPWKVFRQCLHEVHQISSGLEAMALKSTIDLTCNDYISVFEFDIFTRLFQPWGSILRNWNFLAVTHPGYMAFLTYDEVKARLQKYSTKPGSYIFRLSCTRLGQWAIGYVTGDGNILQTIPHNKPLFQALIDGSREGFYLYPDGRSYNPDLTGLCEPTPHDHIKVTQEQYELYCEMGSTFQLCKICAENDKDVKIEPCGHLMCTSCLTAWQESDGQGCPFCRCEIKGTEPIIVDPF
assay metric: IC50 (µM)

>  <compound>
CC(=O)N1CC([C@@H](c2cccc(N3Cc4c(cc(CNC5(C)CCC5)cc4C(F)(F)F)C3=O)c2)c2nncn2C)C1 (single isomer, unassigned)

>  <uom>
µM

>  <IC50>
0.58

$$$$
>  <compound>
Cn1cnnc1[C@H](c1cccc(N2Cc3c(cc(CNC4(C)CCC4)cc3C(F)(F)F)C2=O)c1)C1CC(OCC(F)F)C1 (single isomer, unassigned) [Compound 262]

>  <uom>
µM

>  <IC50>
0.038

$$$$
>  <compound>
Cn1cnnc1[C@H](C[C@H]1COCCO1)c1cccc(N2Cc3c(cc(CNC4(C)CCC4)cc3C(F)(F)F)C2=O)c1

>  <uom>
µM

>  <IC50>
0.4

$$$$
>  <compound>
CO[C@H]1C[C@](c2cc(NC3CCCC3)cc(N3Cc4c(cc(CNC5(C)CCC5)cc4C(F)(F)F)C3=O)c2)(c2nncn2C)C1

>  <uom>
µM

>  <IC50>
0.044

$$$$
>  <compound>
Cn1cnnc1C1(c2cccc(N3Cc4c(cc([C@H](O)CO)cc4C(F)(F)F)C3=O)c2)CCC1 (single isomer, unassigned)

>  <uom>
µM

>  <IC50>
0.41

$$$$

a. Cn1cnnc1[C@H](c1cccc(N2Cc3c(cc(CNC4(C)CCC4)cc3C(F)(F)F)C2=O)c1)C1(F)COC1 (single isomer, unassigned)
b. CO[C@H]1C[C@](c2cc(N[C@@H](C)CC#N)cc(N3Cc4c(cc(CNC5(C)CCC5)cc4C(F)(F)F)C3=O)c2)(c2nncn2C)C1 (single isomer, unassigned)
Compare a and b by numeric IC50 and name the larger one. Field: selected label. Fill in the label of the entry you choose.
b

###

target: Human Cbl-b (residues 40-426) (Homo sapiens (Human), UniProt Q13191)
assay metric: Kd (nM)

Consider the reported Kd for these molecules:
>  <molecule>
CO[C@H]1C[C@](c2cccc(N3Cc4c(cc([C@@H](N)C(C)(C)C)cc4C(F)(F)F)C3=O)c2)(c2nncn2C)C1 (single isomer, unassigned)

>  <target or test system>
Human Cbl-b (residues 40-426) (Homo sapiens (Human), UniProt Q13191)

>  <number>
4

$$$$
>  <molecule>
Cn1cnnc1[C@H](c1cccc(N2Cc3c(Cl)cc(CNC4(C)CCC4)cc3C2=O)c1)[C@H]1C[C@@H](F)C1 (single isomer, unassigned)

>  <target or test system>
Human Cbl-b (residues 40-426) (Homo sapiens (Human), UniProt Q13191)

>  <number>
6.4

$$$$
>  <molecule>
CO[C@H]1C[C@](c2cccc(N3Cc4c(cc(CN5CCOCC5)cc4C(F)(F)F)C3=O)c2)(c2nncn2C)C1

>  <target or test system>
Human Cbl-b (residues 40-426) (Homo sapiens (Human), UniProt Q13191)

>  <number>
1100

$$$$
>  <molecule>
CO[C@H]1C[C@@](c2cc(NC3CCCC3)nc(N3Cc4c(cc(CNC5(C)CCC5)cc4C(F)(F)F)C3=O)c2)(c2nncn2C)C1

>  <target or test system>
Human Cbl-b (residues 40-426) (Homo sapiens (Human), UniProt Q13191)

>  <number>
3.3

$$$$

I. C[C@@H](NC1(C)CCC1)c1cc2c(c(C(F)(F)F)c1)CN(c1cccc(C3(c4nncn4C)CC(F)(F)C3)c1)C2=O (single isomer, unassigned)
II. Cn1cnnc1[C@@H](c1cccc(N2Cc3c(cc(CNC4(C)CC4)cc3C(F)(F)F)C2=O)c1)C1COC1 (single isomer, unassigned)
Could you tell me which of these two has the smaller Kd figure? First: I Second: II Refer to your chosen item by its label in the answer.
I

1. CO[C@H]1C[C@](c2cccc(N3Cc4c(cc(CNC5(C)CC5)cc4C(F)(F)F)C3=O)c2)(c2nncn2C)C1
2. CO[C@H]1C[C@](c2cccc(N3Cc4c(cc(CNCC5CC5(F)F)cc4C(F)(F)F)C3=O)c2)(c2nncn2C)C1 (stereo partly drawn)
3. Cn1cnnc1[C@@H](c1cc(F)cc(N2Cc3c(cc(CNC4(C)CCC4)cc3C(F)(F)F)C2=O)c1)C1COC1 (single isomer, unassigned)
4. CCNc1cc(C2(c3nncn3C)CC3(COC3)C2)cc(N2Cc3c(cc(CNC4(C)CCC4)cc3C(F)(F)F)C2=O)n1
Hey, can you sort those molecules up there by Kd, smallest first? Submit the labels in the order that the ranking request calls for.
4, 2, 1, 3
(4: 1.3 nM, 2: 1.9 nM, 1: 3.6 nM, 3: 8.7 nM)

A. CO[C@H]1C[C@](c2cccc(N3Cc4c(cc(CNC5C[C@@H]6C[C@H]5CO6)cc4C(F)(F)F)C3=O)c2)(c2nncn2C)C1 (stereo partly drawn)
B. CCNc1cc([C@]2(c3nncn3C)C[C@H](C)C2)cc(N2Cc3c(cc(CNC4(C)CCC4)cc3C(F)(F)F)C2=O)c1F
C. CO[C@H]1C[C@](c2cccc(N3Cc4c(cc(CNC5CC6(C5)CC6(F)F)cc4C(F)(F)F)C3=O)c2)(c2nncn2C)C1 (stereo partly drawn)
D. Cn1cnnc1[C@@H](C[C@H]1CCOC1)c1cccc(N2Cc3c(cc(CNC4(C)CCC4)cc3C(F)(F)F)C2=O)c1
E. Cn1cnnc1[C@@H](c1cccc(N2Cc3c(cc(CNC4(C)CCC4)cc3C(F)(F)F)C2=O)c1)C1CC(OC(F)F)C1 (single isomer, unassigned)
Could you please order the items by Kd, going from the lowest number to the highest? Please write the labels in the order that was asked for.
B, C, A, E, D

a. CCNc1cc(N2Cc3c(cc(CNC4(C)CCC4)cc3C(F)(F)F)C2=O)cc([C@]2(c3nncn3C)C[C@@H](C)C2)c1
b. COC[C@H]1C[C@@](c2cccc(N3Cc4c(cc(CNC5(C)CCC5)cc4C(F)(F)F)C3=O)c2)(c2nncn2C)C1
Two entries are listed, a and b . Which one carries the higher Kd? Your answer should be the label of the entry you select.
b

I. CO[C@]1(C)C[C@@](c2cccc(N3Cc4c(cc(CNC5(C)CCC5)cc4C(F)(F)F)C3=O)c2)(c2nncn2C)C1
II. C[C@H](NC1(C)CCC1)c1cc2c(c(C(F)(F)F)c1)CN(c1cccc(C3(c4nncn4C)CC(F)(F)C3)c1)C2=O (single isomer, unassigned)
I need your help: which of the pair I , II has higher Kd? // return label of chosen record
II

P. C[C@H](NC1(C)CCC1)c1cc2c(c(C(F)(F)F)c1)CN(c1cccc(C(c3nncn3C)C3COC3)c1)C2=O (stereo partly drawn)
Q. Cn1cnnc1[C@@](O)(c1cccc(N2Cc3c(cc(CNC4(C)CCC4)cc3C(F)(F)F)C2=O)c1)C1COC1 (single isomer, unassigned)
For the two items P and Q , which reports the higher Kd value? Respond with the label that goes with your answer.
Q
(Q: 58 nM, P: 0.7 nM)

Values compiled from patent US12187709B2.
